test: Stability in acidic and basic conditions (TLC); assay type: physicochemical; details: acidic conditions, 48 h; 1 = stable
Assay metric: Number of TLC spots

Per the record, NC1=N/C(=C\c2ccc(-c3ccccc3)cc2)C(=O)N1CCCN1CCOCC1 has Number of TLC spots of 2

Per the record, Cl.O=C1N=C(N2CCC(N3CCOCC3)CC2)N/C1=C\c1cccc2ccccc12 has Number of TLC spots of 2

Per the record, NC1=N/C(=C\c2ccc3c(c2)Cc2ccccc2-3)C(=O)N1CCCN1CCOCC1 has Number of TLC spots of 3

Per the record, O=C1NC(N2CCC(N3CCOCC3)CC2)=N/C1=C\c1ccc(Oc2ccccc2)cc1 has Number of TLC spots of 2

Per the record, O=C1NC(N2CCC(N3CCOCC3)CC2)=N/C1=C\c1cccc(Oc2ccccc2)c1 has Number of TLC spots of 2
